- System: UACC-257
- Experiment Description: NCI tumour cell line growth inhibition, 48 h
Calls of active or inactive are those of the source. No stated cut-off is given here; in the data, active = GI50 up to about 1.1 µM and inactive = higher.
Catalogue of GI50 readings, one per entry.

[[record]]
molecule = "CN(C)CCSc1nccc(-c2cc3ccccc3s2)n1"
experimental_readout = "GI50"
experimental_result = "> 10 µM (inactive)"


In: Record COc1ccc(/C(C#N)=C2/O/C(=N/N)C(c3ccc(OC)c(OC)c3)C2=O)cc1OC (stereo unspecified) : what is its GI50 with UACC-257?
Out: > 100 µM (inactive)

In: Checklist item: GI50 tested on UACC-257, entry O=C(NNCC(F)(F)F)c1ccncc1 , value?
Out: > 100 µM (inactive)

---

- System: DU-145
- Experiment Description: NCI tumour cell line growth inhibition, 48 h
Activity calls are given as the source filed them. No stated cut-off is given here; in the data, active = GI50 up to about 1.1 µM and inactive = higher.
In this section, each of the molecules is paired with its reported GI50.

[[record]]
molecule = "COc1ccc(OC)c2sc(N3C(=O)/C(=C/c4cccc(Oc5ccccc5)c4)N=C3c3ccccc3)nc12"
experimental_result = "> 100 µM (inactive)"

[[record]]
molecule = "COc1ccc(C(=O)/C=C2\\c3ccccc3C(=O)N2C)cc1"
experimental_result = "> 100 µM (inactive)"

[[record]]
molecule = "O=C(O)c1ccc2c(O)c(O)ccc2c1"
experimental_result = "39.8 µM (inactive)"


In: For the molecule O=C(O)C1CC=CCC1C(=O)Nc1cccc(O)c1 (stereo not given) , what GI50 is on record?
Out: > 100 µM (inactive)

In: Would you mind telling me what GI50 value was observed for CN(C)c1n2c3cc([N+](=O)[O-])ccc3[n+]3c(N(C)C)n4ccccc4c3c2c2cccc[n+]12.[O-][Cl+3]([O-])([O-])[O-].[O-][Cl+3]([O-])([O-])[O-] ?
Out: > 100 µM (inactive)

---

- System: NCI-H23
- Experiment Description: NCI tumour cell line growth inhibition, 48 h
Calls of active or inactive are those of the source. Cut-off read from the data, not from the text of the source: active = GI50 up to about 1.1 µM and inactive = higher.
Experimental Readout: GI50

Look over these answered cases.
[[record]]
compound = "CCOC(=O)[C@H]1Nc2ccc(OC)cc2C2c3ccccc3CC21 (stereo not given in full)"
experimental_result = "> 100 µM (inactive)"

[[record]]
compound = "O=C(NNC(=O)c1ccccc1S)c1ccccc1S [BIS(THIOSALICYL)HYDRAZIDE]"
experimental_result = "11.1 µM (inactive)"


In: # GI50 lookup, item C=C1C(=O)C23C(O)C1CCC2C12CO[C@]3(O)[C@@H](O)C1C(C)(C)CCC2O (stereo not given in full)
Out: 19.6 µM (inactive)

In: Need GI50 of N/N=C(\C(=O)Nc1ccc(Cl)cc1Cl)C(c1cnc2ccccc2n1)[N+](=O)[O-] (stereo not given) , thanks.
Out: > 100 µM (inactive)

---

- Test system: Malme-3M
- Experiment Description: NCI tumour cell line growth inhibition, 48 h
Activity calls are given as the source filed them. No stated cut-off is given here; in the data, active = GI50 up to about 1.1 µM and inactive = higher.
Experimental Readout: GI50

Some solved entries appear below for comparison.
[[record]]
molecule = "Cc1nc(N)c(N2CCN(CN)CC2)c(O)n1"
experimental_readout = "GI50"
experimental_result = "> 100 µM (inactive)"

[[record]]
molecule = "O=C(NNCC(F)(F)F)c1ccncc1"
experimental_readout = "GI50"
experimental_result = "> 100 µM (inactive)"

[[record]]
molecule = "CCOC(=O)C12CCSC1C1(C#N)C(C#N)=CC2(N=P(c2ccccc2)(c2ccccc2)c2ccccc2)n2c(=O)n(-c3ccccc3)c(=O)n21 (stereo not given)"
experimental_readout = "GI50"
experimental_result = "44.6 µM (inactive)"

[[record]]
molecule = "CC(=O)Nc1c(C)ccc2c1C(=O)c1ccccc1C2=O"
experimental_readout = "GI50"
experimental_result = "> 100 µM (inactive)"

[[record]]
molecule = "S=C1NC(c2ccccc2)=NC(Cc2ccccc2)(c2ccccc2)N1c1ccccc1 (stereo not given)"
experimental_readout = "GI50"
experimental_result = "> 100 µM (inactive)"


In: GI50 for OCCN(CCO)c1ncnc2c1sc(=S)n2-c1ccccc1 ?
Out: > 100 µM (inactive)

In: // query GI50 value for entry CNC(=O)C(C)Oc1ccc(OCC2CCCCC2)cc1 (stereo not given)
Out: 25.3 µM (inactive)

In: Please look up its GI50: CCC1(N=[N+]=[N-])C(=O)Nc2cc(C)ccc2C1=O (stereo not given)
Out: 68.1 µM (inactive)

In: Endpoint output: GI50 of N#CC1=C(N)Oc2c(ccc3cccnc23)C1c1ccccc1 (stereo not given) . Value?
Out: 15.2 µM (inactive)

In: # query: GI50 of entry COc1ccc(-c2cc(-c3ccco3)c(C#N)c(=S)n2C2OC(COC(C)=O)C(OC(C)=O)C(OC(C)=O)C2OC(C)=O)cc1 (stereo not given)
Out: 5.18 µM (inactive)

In: Look at this molecule and give its reported GI50. O=C(Nc1cc(C(=O)Nc2cccc(S(=O)(=O)O)c2)cc(C(=O)Nc2cccc(S(=O)(=O)O)c2)c1)c1cccc(C(=O)Nc2cc(C(=O)Nc3cccc(S(=O)(=O)O)c3)cc(C(=O)Nc3cccc(S(=O)(=O)O)c3)c2)c1
Out: > 100 µM (inactive)

In: Which GI50 value belongs to COc1cc(OC)c2c(=O)c(OC)c(-c3ccc4c(c3)OCO4)oc2c1 ?
Out: > 100 µM (inactive)

In: Consider the molecule shown here: CC(C)Oc1cccc(N2C(Nc3ccccc3)=Nc3ccncc3S2(=O)=O)c1 What is its recorded GI50?
Out: 23.2 µM (inactive)

In: Reported GI50, molecule O=[N+]([O-])c1c(F)c(F)c2c(c1F)N(CCCCCl)c1ccccc1S2 : ____
Out: 16.6 µM (inactive)

In: Return reported GI50; argument: C/C(=N\NC(N)=O)C(CN1CCOCC1)C(c1ccccc1)c1c(O)c2ccccc2oc1=O (stereo not given)
Out: > 100 µM (inactive)

In: Form field: reported GI50 of CCCCCCCSCC(O)COC(c1ccccc1)(c1ccccc1)c1ccccc1 (stereo not given)
Out: 60 µM (inactive)

In: Report GI50 for CCOC(=O)NC(=O)c1cn(CCCOC(=O)CCCCCCCCC(=O)OCCCn2cc(C(=O)NC(=O)OCC)c(=O)n(C)c2=O)c(=O)n(C)c1=O please.
Out: > 100 µM (inactive)

In: Could you share which GI50 value was measured for CC(=O)c1cccc(NC(=O)C(=O)c2c(O)oc3ccccc3c2=O)c1 ?
Out: > 100 µM (inactive)

In: What does the data say about its GI50? Entry: COC(=O)C(Cc1cc(OC)c(OC)c(OC)c1)C(=O)OC
Out: > 320 µM (inactive)

In: Consider the molecule c1cc(-c2ccsc2-c2ccsc2)cs1 and give its measured GI50.
Out: 26.9 µM (inactive)

Data provenance: ChEMBL document CHEMBL1201862
